Documented IC50 across a set of compounds
# Assayed System: PLpro from SARS-CoV-2 (Severe acute respiratory syndrome coronavirus 2, UniProt P0DTC1)
# Assay Name: biochemical
Report the figure in nM without appending any unit label.

Before answering, review these 3 worked examples.
Nc1nc2nc[nH]c2c(=S)[nH]1 [Thioguanine] : 4540
CCN(CC)C(=S)SSC(=S)N(CC)CC [Disulfiram] : 690
O=c1sn(-c2cccc3ccccc23)c(=O)n1Cc1ccccc1 [Tideglusib] : 210

Prompt line: Looking for the measured IC50 of CC(Cc1ccc(O)c(O)c1)C(C)Cc1ccc(O)c(O)c1 (stereo not shown) [Nordihydroguaiaretic acid] , can you help?
Response line: 1060
